# System: ATP;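 further: ATP exposure 15 min at 22 °C before imaging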
# assay.procedure: switch fluorescence ratio, 500 uM ATP over buffer (Cy3 cluster intensity, sum of 5 cycles each) (fold (ratio)); higher = stronger signal-on switching upon ATP binding; sequences stand for … in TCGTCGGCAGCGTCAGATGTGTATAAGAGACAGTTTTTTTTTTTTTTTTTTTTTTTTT…TC
# condition.set: aptamer strand: ATP DNA aptamer (quencher-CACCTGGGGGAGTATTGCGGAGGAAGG + anchor), 100 nM annealed; ATP concentration: 500 uM
outcome.measure: switch fluorescence ratio
Would you mind answering with just the numeric figure?

[Q] What is its switch fluorescence ratio for ATP? Entry: `ATTGCGTTTG`
[A] 1.01

[Q] // lookup switch fluorescence ratio | system=ATP | key= `AGGGTTTAGC`;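 further: ATP exposure 15 min at 22 °C before imaging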
[A] 1.02

[Q] Please provide the recorded switch fluorescence ratio for `AAAAAATCGT` , tested on ATP.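 Further: ATP exposure 15 min at 22 °C before imaging.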
[A] 1.02

[Q] What value of switch fluorescence ratio on ATP does `AGTTATAAGT` have?
[A] 0.979

[Q] What is its switch fluorescence ratio for ATP? Entry: `GGGCCGGGGT`
[A] 0.993

[Q] Query switch fluorescence ratio on ATP for `CGGGGTCTTC`
[A] 0.996

[Q] Requested read-out switch fluorescence ratio, target or system ATP, entry `CGGGGAACTT`;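 further: ATP exposure 15 min at 22 °C before imaging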
[A] 1.01

[Q] Record `TGCTAGAACT` : what is its switch fluorescence ratio with ATP?
[A] 0.972

[Q] Any idea what switch fluorescence ratio came out for `TTTCGTAGAG` on ATP?
[A] 1

[Q] For ATP, provide switch fluorescence ratio of `AAAACTTTTG` please.
[A] 1.02
